List of Kd values.
Biological target: T1, hDPEP3-ECD-His (human, UniProt Q9H4B8 36-463)
T1 construct: also called hDPEP3-His; monomeric hDPEP3-His antigen; not shown: histidine tag
T1 sequence: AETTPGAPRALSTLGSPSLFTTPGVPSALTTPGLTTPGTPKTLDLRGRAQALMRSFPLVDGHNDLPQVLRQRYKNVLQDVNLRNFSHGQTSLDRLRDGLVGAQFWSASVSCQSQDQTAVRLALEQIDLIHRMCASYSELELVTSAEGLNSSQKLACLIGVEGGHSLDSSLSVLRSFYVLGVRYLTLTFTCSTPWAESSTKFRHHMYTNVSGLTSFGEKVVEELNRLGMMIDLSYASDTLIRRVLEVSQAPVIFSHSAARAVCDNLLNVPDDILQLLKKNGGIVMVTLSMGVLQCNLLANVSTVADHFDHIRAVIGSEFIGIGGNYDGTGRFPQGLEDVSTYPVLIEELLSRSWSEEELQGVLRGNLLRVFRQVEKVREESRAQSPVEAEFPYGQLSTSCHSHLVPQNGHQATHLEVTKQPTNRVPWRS
Test: BLI ForteBio RED, 200 nM hDPEP3-His, estimated grade
Quantity name: Kd

Binder	Value
SC34.27 (antibody, mouse IgG1, V domains shown) VH: QVQLQQSGAELARPGASVKLSCKASGYTFRSYGINWVKQRTGQGLEWIGEIYPGRGDVYYNENFKGKATLTTDKSSSTAYMQLSSLTSEDSAVYFCARVHDYGSWFPYWGQGTLVTVSA VL: DIVMSQSPSSLAVSVGEKVTMSCKSSQSLLYSRNQKNYLAWYQQKPGQSPKLLIYWASTRESGVPDRFTGSGSGTDFTLTINSVKAEDLAVYYCHQYYRYPLTFGAGTKLELK	< 5 nM
SC34.83 (antibody, mouse IgG2a, V domains shown) VH: QVQLQQSGAELVKPGASVKISCKASGYAFSHSWMNWVKQRPGKGLEWIGRIYPGDGDINYNGKFKGKATLTADKSSSTAYMQLSSLTSEDSAVYFCARRGPSYNNYCFDYWGQGTTLTVSS VL: QIVLIQSPAIMSASPGENVTMTCSASSSVSYMHWYQQKSGTSPKRWIYDTSKLASGVPARFSGSGSGTSYSLTISSMEAEDAATYYCQQWNSYPPTFGAGTKLELK	> 10 nM
SC34.48 (antibody, mouse IgG1, V domains shown) VH: EVQLQQSGLEMVKPGASVKISCKASGYIFTDYYMHWVKQSHGKSLDWIGRVNPKKGGTTYNQKFEGKATLTVDKSSSTAYMDLNSLTSEDSAVYYCAMGIYFSYDASFDYWGQGTTLTVSS VL: DIQMTQAPASLSASVGETVTITCRTSGHIYSYLAWYQQKQGKSPQLLVYNAKTLAEGVSSRFSGSGSGTQFSLKITSLQPEDFGDYYCQHHYDTPYTFGGGTKLEIK	< 5 nM
SC34.61 (antibody, mouse IgG1, V domains shown) VH: EVKLVESGGGLVKPGGSLKLSCAASGFTFTSYTMSWVRQTPAKRLEWVATISTGGGNTYYPDIVKGRFTISRDNARSTLYLQMSSLRSEDSAMYYCARRFYDGSYNYWYFDVWGAGTTVTVSS VL: DIQMIQSPSSMFASLGDRVSLSCRASQGIRGNLDWYQQKPGGTIKLLIYSTSNLNSGVPSRFSGSGSGSDYSLTISSLESEDFADYYCLQRDAYPYTFGGGTKLEIK	> 10 nM
